assay: In vivo clearance after single intravenous infusion (plasma ELISA)
Design: species or system New Zealand white rabbits
experimental setup: New Zealand white, rabbit, plasma, iv, single i.v. infusion, read-out: half-life of antigen clearance in plasma, second phase
Ends that are not written are not given here.
measured parameter: half-life (min)

>  <substance>
RPPGF [RPPGF, Arg-Pro-Pro-Gly-Phe]

>  <measured number>
20

$$$$

* * *

assay: In vivo clearance after single intravenous infusion (plasma ELISA)
Set-up: species or system New Zealand white rabbits
experimental setup: New Zealand white, plasma, iv; rabbit, single i.v. infusion 75 to 90 mg, ELISA, two of three rabbits; read-out: peak plasma concentration after infusion
Ends that are not written are not given here.
measured parameter: Cmax (µg/mL)

>  <substance>
RPPGF [RPPGF, Arg-Pro-Pro-Gly-Phe]

>  <measured number>
60

$$$$
